Below: a set of entries, each annotated with reported BT Capacity Loss.
Assay: Storage Capacity Loss Test
Assay type: physicochemical
Details: 72-24 Hrs storage at room temperature
Report as a plain number; the unit % is understood.

Recorded BT Capacity Loss, per entry:
INSERT INTO results (compound, unit_info, value_measured) VALUES
  ('CC(O)CNC(O)C(O)NCC(C)O (centres unmarked)', '%', 67),
  ('CCCNC(O)C(O)NCCC (centres unmarked)', '%', 55),
  ('CCNC(O)C(O)NCC (centres unmarked)', '%', 46),
  ('CC(C)NC(O)C(O)NC(C)C (centres unmarked)', '%', '−2');

// moving on: another record for BT Capacity Loss
Entry under review: CNC(O)C(O)NC (centres unmarked) . Reported BT Capacity Loss? 34
